Target: HIV integrase (Human immunodeficiency virus type 1 group M subtype B, UniProt P04585)
Assay: HIV integrase inhibitory activity assay (strand transfer, immunoplate, OD405)
Assay type: biochemical
Settings: HIV integrase inhibition rate, absorbance OD405 nm
Catalogue of pIC50 values
When answering, recall that pIC50 equals minus log10 of the concentration in mol/L, and write that number alone.

Consider the following illustrative entries.
CN1CN(C[C@@H]2CCCO2)C(=O)c2c(O)c(=O)c(C(=O)NCc3ccc(F)cc3F)cn21    8.48
CN1CN(C[C@H]2CCCO2)C(=O)c2c(O)c(=O)c(C(=O)NCc3ccc(F)cc3F)cn21    8.59
O=C(NCc1ccc(F)cc1F)c1cn2c(c(O)c1=O)C(=O)N(CCN1CCOCC1)CN2    8.32

Shift focus to the following entry.
Req: Which pIC50 value belongs to O=C(NCc1ccc(F)cc1F)c1cn2c(c(O)c1=O)C(=O)N(C[C@@H]1CCCO1)CN2 ?
Resp: 8.42
